System: 22Rv1 tumor-bearing mice
Protocol Details: Biodistribution in 22Rv1 tumor-bearing mice
Stated Conditions: 60 min p.i., 0.74 MBq, n = 3
Procedure: The animal studies were approved by the institutional animal care and use committee of the Chinese PLA General Hospital. Healthy male ICR mice were injected with either a novel radiotracer (37 MBq in 150 μL) or saline (150 μL) for the radiotoxicity evaluation. […] […] (10 min, 30 min, 60 min), tumors and interested organs were harvested, weighed and measured by a γ-counter, the results were expressed as the percentage of injected dose per gram (ID%/g). […]
// returns False unless Uptake Bone, Mean is strictly below 0.2 ID%/g, in which case True

Before answering, review these 4 worked examples.
Compound: O=C([O-])CN1CCN(CC(=O)[O-])CCN(CC(=O)NCC2CCC(C(=O)NC(Cc3ccc4ccccc4c3)C(=O)NCCCCC(NC(=O)NC(CCC(=O)O)C(=O)O)C(=O)O)CC2)CCN(CC(=O)O)CC1.[68Ga+3] (centres unmarked) [[^68Ga]Ga-PSMA-617, reference compound]
Class Label: False
--
Compound: O=C([O-])CN1CCN(CC(=O)[O-])CCN(CC(=O)NCCCCC(=O)NC(Cc2cnc3ccccc3c2)C(=O)NCCCCC(NC(=O)NC(CCC(=O)O)C(=O)O)C(=O)O)CCN(CC(=O)O)CC1.[68Ga+3] (centres unmarked) [[^68Ga]Ga-PSMA-Q-1]
Class Label: True
--
Compound: O=C([O-])CN1CCN(CC(=O)[O-])CCN(CC(=O)NCc2ccc(C(=O)NC(Cc3cnc4ccccc4c3)C(=O)NCCCCC(NC(=O)NC(CCC(=O)O)C(=O)O)C(=O)O)cc2)CCN(CC(=O)O)CC1.[68Ga+3] (centres unmarked) [[^68Ga]Ga-PSMA-Q-3]
Class Label: False
--
Compound: O=C([O-])CN1CCN(CC(=O)[O-])CCN(CC(=O)NCC2CCC(C(=O)NC(Cc3ccncc3)C(=O)NCCCCC(NC(=O)NC(CCC(=O)O)C(=O)O)C(=O)O)CC2)CCN(CC(=O)O)CC1.[68Ga+3] (centres unmarked) [[^68Ga]Ga-PSMA-4PY]
Class Label: False

Below 0.2 ID%/g on Uptake Bone, Mean? Entry O=C([O-])CN(CCN(CC(=O)[O-])Cc1cc(CCC(=O)NCCCCCC(=O)NCCCC[C@H](NC(=O)N[C@@H](CCC(=O)O)C(=O)O)C(=O)O)ccc1[O-])Cc1cc(CCC(=O)O)ccc1[O-].[68Ga+3].[OH3+] [[^68Ga]Ga-PSMA-11, reference compound]
True

----------
For each record, write down the corresponding Uptake Lung, Mean.
System: 22Rv1 tumor-bearing mice
Protocol Details: Biodistribution in 22Rv1 tumor-bearing mice
Stated Conditions: 10 min p.i., 0.74 MBq, n = 3
Answers are plain numbers, in ID%/g.

Recorded Uptake Lung, Mean, per entry:
Molecule: O=C([O-])CN(CCN(CC(=O)[O-])Cc1cc(CCC(=O)NCCCCCC(=O)NCCCC[C@H](NC(=O)N[C@@H](CCC(=O)O)C(=O)O)C(=O)O)ccc1[O-])Cc1cc(CCC(=O)O)ccc1[O-].[68Ga+3].[OH3+] [[^68Ga]Ga-PSMA-11, reference compound]
Assayed Target: 22Rv1 tumor-bearing mice
Uptake Lung, Mean [ID%/g]: 0.77
--
Molecule: O=C([O-])CN1CCN(CC(=O)[O-])CCN(CC(=O)NCC2CCC(C(=O)NC(Cc3ccncc3)C(=O)NCCCCC(NC(=O)NC(CCC(=O)O)C(=O)O)C(=O)O)CC2)CCN(CC(=O)O)CC1.[68Ga+3] (stereo not shown) [[^68Ga]Ga-PSMA-4PY]
Assayed Target: 22Rv1 tumor-bearing mice
Uptake Lung, Mean [ID%/g]: 0.83

Could I get Uptake Lung, Mean for every one of these entries?
1. O=C([O-])CN1CCN(CC(=O)[O-])CCN(CC(=O)NCCCCCC(=O)NC(Cc2cnc3ccccc3c2)C(=O)NCCCCC(NC(=O)NC(CCC(=O)O)C(=O)O)C(=O)O)CCN(CC(=O)O)CC1.[68Ga+3] (stereo not shown) [[^68Ga]Ga-PSMA-Q-2]
2. O=C([O-])CN1CCN(CC(=O)[O-])CCN(CC(=O)NCC2CCC(C(=O)NC(Cc3ccc4ccccc4c3)C(=O)NCCCCC(NC(=O)NC(CCC(=O)O)C(=O)O)C(=O)O)CC2)CCN(CC(=O)O)CC1.[68Ga+3] (stereo not shown) [[^68Ga]Ga-PSMA-617, reference compound]

1. 0.83
2. 1.40

Could I get Uptake Lung, Mean for every one of these entries?
1. O=C([O-])CN1CCN(CC(=O)[O-])CCN(CC(=O)NCC2CCC(C(=O)NC(Cc3cnc4ccccc4c3)C(=O)NCCCCC(NC(=O)NC(CCC(=O)O)C(=O)O)C(=O)O)CC2)CCN(CC(=O)O)CC1.[68Ga+3] (stereo not shown) [[^68Ga]Ga-PSMA-Q]
2. O=C([O-])CN1CCN(CC(=O)[O-])CCN(CC(=O)NCc2ccc(C(=O)NC(Cc3cnc4ccccc4c3)C(=O)NCCCCC(NC(=O)NC(CCC(=O)O)C(=O)O)C(=O)O)cc2)CCN(CC(=O)O)CC1.[68Ga+3] (stereo not shown) [[^68Ga]Ga-PSMA-Q-3]
3. O=C([O-])CN1CCN(CC(=O)[O-])CCN(CC(=O)NCCCCC(=O)NC(Cc2cnc3ccccc3c2)C(=O)NCCCCC(NC(=O)NC(CCC(=O)O)C(=O)O)C(=O)O)CCN(CC(=O)O)CC1.[68Ga+3] (stereo not shown) [[^68Ga]Ga-PSMA-Q-1]

1: 1.10; 2: 0.83; 3: 1.19
